Just for reference, ChEMBL document CHEMBL1126251 is where these values come from.

Target: NADP-dependent malic enzyme (Rattus norvegicus) (UniProt P13697)
Sequence (P13697 whole entry): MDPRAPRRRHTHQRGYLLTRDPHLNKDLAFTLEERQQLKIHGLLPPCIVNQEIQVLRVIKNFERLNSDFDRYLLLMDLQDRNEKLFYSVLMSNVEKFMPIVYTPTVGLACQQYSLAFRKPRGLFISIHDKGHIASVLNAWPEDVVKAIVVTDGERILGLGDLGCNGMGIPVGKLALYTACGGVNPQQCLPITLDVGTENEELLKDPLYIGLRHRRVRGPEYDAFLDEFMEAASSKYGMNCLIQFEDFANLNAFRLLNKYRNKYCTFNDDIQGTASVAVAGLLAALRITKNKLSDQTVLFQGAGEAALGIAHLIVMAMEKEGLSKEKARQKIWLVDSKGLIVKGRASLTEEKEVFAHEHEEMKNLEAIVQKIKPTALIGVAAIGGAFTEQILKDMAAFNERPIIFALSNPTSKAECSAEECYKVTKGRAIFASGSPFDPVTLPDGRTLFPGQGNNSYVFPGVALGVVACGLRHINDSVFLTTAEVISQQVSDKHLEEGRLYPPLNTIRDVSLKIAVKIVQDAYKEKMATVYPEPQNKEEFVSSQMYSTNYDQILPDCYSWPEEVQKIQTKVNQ
Assay: Effect on rat hepatic Malic enzyme activity relative to L-T3.
parameter: L-T3 (%)

Recorded results for 2 compounds are shown here.
                                   compound  assay_result
0  O=C(O)CCc1cc(I)c(Oc2ccc(O)c(I)c2)c(I)c1 [THYROPROPIC ACID]            36
1  CC(Cc1cc(I)c(Oc2ccc(O)c(I)c2)c(I)c1)C(=O)O (racemic)            62

[P] CC(Cc1cc(I)c(Oc2cc(I)c(O)c(I)c2)c(I)c1)C(=O)O (racemic)
[Q] N[C@@H](Cc1cc(I)c(Oc2ccc(O)c(I)c2)c(I)c1)C(=O)O [LIOTHYRONINE]
In: Select one: P or Q . Criterion: greater recorded L-T3. Your choice should be expressed through its label.
Out: Q
